Cited source: ChEMBL document CHEMBL5247607

Measured selectivity ratio of individual entries
assay: Selectivity index, ratio of IC50 for cytotoxicity against human CCD 19Lu cells to IC50 for cytotoxicity against human A549 cells; format: toxicity, cell-based; conditions: CCD 19Lu cells versus A549 cells, read-out: Ratio IC50

{"columns": ["sample_smiles", "selectivity ratio"],
 "data": [
  ["CN(C)c1ccc(/C=C2\\Cc3cc4c(cc3C2=O)OCO4)cc1", "> 24.6"],
  ["CC(=O)Nc1ccc(/C=C2\\Cc3cc4c(cc3C2=O)OCO4)cc1", "> 13.5"],
  ["O=C1/C(=C/c2ccc(N3CCOCC3)cc2)Cc2cc3c(cc21)OCO3", "> 25.6"],
  ["O=C1/C(=C/c2ccc(N3CCCC3)cc2)Cc2cc3c(cc21)OCO3", "> 5.25"],
  ["CN1CCN(c2ccc(/C=C3\\Cc4cc5c(cc4C3=O)OCO5)cc2)CC1", "> 23.8"]
]}

Enquiry: I'd like to know its selectivity ratio. The molecule in question is `O=C1/C(=C/c2ccc(-n3cncn3)cc2)Cc2cc3c(cc21)OCO3`
Return: > 23.3

Enquiry: I'd like to know its selectivity ratio. The molecule in question is `O=C1/C(=C/c2ccc(-n3ccnc3)cc2)Cc2cc3c(cc21)OCO3`
Return: > 11.4

Enquiry: I'd like to know its selectivity ratio. The molecule in question is `CCN(CC)c1ccc(/C=C2\Cc3cc4c(cc3C2=O)OCO4)cc1`
Return: > 128

Enquiry: I'd like to know its selectivity ratio. The molecule in question is `O=C1/C(=C/c2ccc(OCCN3CCOCC3)cc2)Cc2cc3c(cc21)OCO3`
Return: 10.4

====

system: PANC-1; assay: Induction of apoptosis in human PANC-1 cells assessed as late apoptotic cells at IC50 incubated for 24 hrs by annexin V-FITC/PI staining based flow cytometry analysis (reference value: 0.2%); type: functional
Kindly apply the following: y if Activity is less than 2%, n in every other case.

Worked cases, answers included:
{"columns": ["sample_smiles", "assigned_class"],
 "data": [
  ["O=C1/C(=C/c2ccc(OCCN3CCOCC3)cc2)Cc2cc3c(cc21)OCO3", "y"],
  ["CCN(CC)c1ccc(/C=C2\\Cc3cc4c(cc3C2=O)OCO4)cc1", "y"],
  ["CN(C)c1ccc(/C=C2\\Cc3cc4c(cc3C2=O)OCO4)cc1", "n"],
  ["O=C1/C(=C/c2ccc(-n3cncn3)cc2)Cc2cc3c(cc21)OCO3", "y"]
]}

Enquiry: # TODO verify Activity < 2% strictly for this molecule: `O=C1/C(=C/c2ccc(N3CCCC3)cc2)Cc2cc3c(cc21)OCO3`
Return: n

====

Measured IC50 at 24 h of individual entries
test: Cytotoxicity against human CCD 19Lu cells assessed as inhibition of cell growth incubated for 24 hrs by MTT assay; type: toxicity, cell-based

Field: example entries. Status: answers known.
{"columns": ["sample_smiles", "value_kind", "result"],
 "data": [
  ["O=C1/C(=C/c2ccc(N3CCOCC3)cc2)Cc2cc3c(cc21)OCO3", "IC50 at 24 h", "> 1430 µM"],
  ["CCN(CC)c1ccc(/C=C2\\Cc3cc4c(cc3C2=O)OCO4)cc1", "IC50 at 24 h", "> 1490 µM"],
  ["CN1CCN(c2ccc(/C=C3\\Cc4cc5c(cc4C3=O)OCO5)cc2)CC1", "IC50 at 24 h", "> 1380 µM"]
]}

Enquiry: I'd like to know its IC50 at 24 h. The compound in question is `O=C1/C(=C/c2ccc(N3CCCCC3)cc2)Cc2cc3c(cc21)OCO3`
Return: < 11.2 µM

Enquiry: I'd like to know its IC50 at 24 h. The compound in question is `O=C1/C(=C/c2ccc(N3CCCC3)cc2)Cc2cc3c(cc21)OCO3`
Return: 61.5 µM

====

assay: Cytotoxicity against human CCD 19Lu cells assessed as inhibition of cell growth incubated for 24 hrs by MTT assay; assay type: toxicity, cell-based
value_kind: IC50 at 24 h

Field: example entries. Status: answers known.
{"columns": ["sample_smiles", "IC50 at 24 h"],
 "data": [
  ["CC(=O)Nc1ccc(/C=C2\\Cc3cc4c(cc3C2=O)OCO4)cc1", "> 1560 µM"],
  ["CN(C)c1ccc(/C=C2\\Cc3cc4c(cc3C2=O)OCO4)cc1", "> 1630 µM"],
  ["O=C1/C(=C/c2ccc(OCCN3CCOCC3)cc2)Cc2cc3c(cc21)OCO3", "160 µM"]
]}

Enquiry: I'd like to know its IC50 at 24 h. The compound in question is `O=C1/C(=C/c2ccc(-n3ccnc3)cc2)Cc2cc3c(cc21)OCO3`
Return: > 1510 µM

Enquiry: I'd like to know its IC50 at 24 h. The compound in question is `O=C1/C(=C/c2ccc(-n3cncn3)cc2)Cc2cc3c(cc21)OCO3`
Return: > 1510 µM
